pIC50: −log10 of the molar value.
# collection of pIC50 values tested on GST-tagged Tankyrase-2 (873-1166 aa) (Homo sapiens)
# Sequence (Q9H2K2 873-1166): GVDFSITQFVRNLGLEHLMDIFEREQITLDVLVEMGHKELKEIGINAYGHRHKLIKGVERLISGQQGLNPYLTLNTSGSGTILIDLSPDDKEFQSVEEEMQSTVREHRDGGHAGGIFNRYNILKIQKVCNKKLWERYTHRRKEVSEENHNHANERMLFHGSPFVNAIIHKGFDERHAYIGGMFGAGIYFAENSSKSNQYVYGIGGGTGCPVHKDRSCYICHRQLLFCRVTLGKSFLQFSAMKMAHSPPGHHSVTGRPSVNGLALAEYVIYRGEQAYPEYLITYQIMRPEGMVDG
recordedEndpoint: pIC50

• CN1CCC(c2ccc(-c3cn4cccc4c(=O)[nH]3)cc2)C1 (stereo not drawn) = 5.52 to 6.52
• COCCOC(C)(C)c1ccc(-c2cn3cc(F)cc3c(=O)[nH]2)cc1 = 5.52 to 6.52
• CC(C)(O)c1ccc(-c2cn3cccc3c(=O)[nH]2)cc1 = > 6.52
• O=c1[nH]c(-c2ccc(C3CCNCC3)cc2)cn2cccc12 = > 6.52
• Cc1nc(-c2ccc(-c3cn4nc(CO)cc4c(=O)[nH]3)cc2)no1 = 4.30 to 5.52
• Cc1cc2c(=O)[nH]c(-c3ccc(C(C)(C)C)cc3)cn2n1 = 5.52 to 6.52
• Cn1cc(-c2cn3cccc3c(=O)[nH]2)cn1 = 5.52 to 6.52
• O=c1[nH]c(-c2ccc([N+](=O)[O-])cc2)cn2cccc12 = > 6.52
• Cc1cc2c(=O)[nH]c(-c3ccc(C(C)(C)O)cc3)cn2c1 = 5.52 to 6.52
• CC(C)(F)c1ccc(-c2cn3cc(F)cc3c(=O)[nH]2)cc1 = 5.52 to 6.52
• O=c1[nH]c(-c2ccc(N3CCCC3)cc2)cn2nccc12 = > 6.52
• CC(C)(O)c1ccc(-c2cn3nc(C(F)(F)F)cc3c(=O)[nH]2)cc1 = 4.30 to 5.52
• CC1(c2ccc(-c3cn4cc(F)cc4c(=O)[nH]3)cc2)CCCO1 (stereo not drawn) = > 6.52
• CC(C)(C)c1ccc(-c2cn3cc(C#N)cc3c(=O)[nH]2)cc1 = 5.52 to 6.52
• Cc1ccc(-c2cn3cccc3c(=O)[nH]2)cc1 [Compound A12, 3-p-tolyl-2H-pyrrolo[1,2-a]pyrazin-1-one] = 5.52 to 6.52
• Cc1cc2c(=O)[nH]c(-c3ccc(C(C)(C)O)cc3)cn2n1 = 5.52 to 6.52
• COC(=O)c1ccc(-c2cn3cccc3c(=O)[nH]2)cc1 = 5.52 to 6.52
• CC(C)(C)c1ccc(-c2cn3nc(CF)cc3c(=O)[nH]2)cc1 = 5.52 to 6.52

---

Measured pEC50 values are reported for all entries that follow.
- Test system: tankyrase 1/2
- methodNotes: Cellular inhibition of Tankyrase: increase of Axin2 level in DLD1 cells (Luminex)
- Type: cell-based
- conditionDescription: 24 hours, read-out: EC50 tankyrase 1/2 (cell assay)
pEC50: −log10 of the molar value.
recordedEndpoint: pEC50

- Cc1cc2c(=O)[nH]c(-c3ccc(C(C)(C)C)cc3)cn2c1 [Compound A38]: > 6.52
- O=c1[nH]c(-c2ccc(C3(O)CCC3)cc2)cn2cccc12 [Compound A111]: > 6.52
- Cc1cc2c(=O)[nH]c(-c3ccc(C(C)(C)O)cc3)cn2c1 [Compound A56]: > 6.52
- COC(=O)c1ccc(-c2cn3cccc3c(=O)[nH]2)cc1 [Compound A28]: 5.52 to 6.52
- O=c1[nH]c(-c2ccc(C3CCNC3)cc2)cn2cccc12 (centres unmarked) [Compound A76]: 5.52 to 6.52
- CC(C)(N)c1ccc(-c2cn3cc(F)cc3c(=O)[nH]2)cc1 [Compound A72]: 4.30 to 5.52
- COCCOC(C)(C)c1ccc(-c2cn3cc(F)cc3c(=O)[nH]2)cc1 [Compound A71]: 5.52 to 6.52
- CC(C)(O)c1ccc(-c2cn3cc(C#N)cc3c(=O)[nH]2)cc1 [Compound A62]: 4.30 to 5.52
- CN1CCC(c2ccc(-c3cn4cc(Cl)cc4c(=O)[nH]3)cc2)CC1 [Compound A82]: 5.52 to 6.52
- C=C(CCCO)c1ccc(-c2cn3cc(F)cc3c(=O)[nH]2)cc1 (single isomer, unassigned) [Compound A74]: 5.52 to 6.52
- Cc1cc2c(=O)[nH]c(-c3ccc(C(C)(C)C)cc3)cn2n1 [Compound A30]: > 6.52
